# measuredTarget: T1, 4H2330-AA
# T1 chain: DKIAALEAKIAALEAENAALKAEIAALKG
# assayText: two-hybrid library CCmax;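 also: natural log of median RNA to DNA barcode read ratio; higher means stronger binding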
# testConditions: mean of both orientations
Collected interaction score values appear next to each entry.
Returns: the value as a bare number; no unit string appended.

[[record]]
binder = "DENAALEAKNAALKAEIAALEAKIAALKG [4H1478-AA]"
propertyname = "interaction score"
assayvalue = -1.56

[[record]]
binder = "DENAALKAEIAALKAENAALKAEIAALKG [4H1626-AA]"
propertyname = "interaction score"
assayvalue = -1.37

[[record]]
binder = "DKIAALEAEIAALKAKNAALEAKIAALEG [4H2165-AA]"
propertyname = "interaction score"
assayvalue = -1.33


Note down interaction score recorded for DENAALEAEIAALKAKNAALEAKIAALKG [4H1142-AA]
-1.84

Output measured interaction score for this item: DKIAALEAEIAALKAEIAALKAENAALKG [4H2124-AA]
-1.05

Give the reported value of interaction score for this record: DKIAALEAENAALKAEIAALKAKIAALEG [4H2253-AA]
-1.14

Query interaction score for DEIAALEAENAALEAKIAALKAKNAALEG [4H175-AA]
-1.68
